# test_protocol: Elimination half life in CD-1 mouse at 10 mg/kg, po by UPLC analysis
# Type: ADME, organism-based
# condition_label: in vivo, read-out: beta t1/2 (converted)
value_kind: half-life (h)
Response body: numeric value in h, unit text excluded.

Recorded half-life of `O=C1COc2ccc(CNC(=O)c3nc4scc(-c5ccc(C(F)(F)F)cc5)c4c(=O)[nH]3)cc2N1` , please.
17.5

----------
# test_protocol: Plasma concentration in CD-1 mouse at 10 mg/kg, po after 48 hrs by UPLC analysis
# condition_label: in vivo
value_kind: Plasma concentration at 48 h (µM)
Response body: numeric value in µM, unit text excluded.

Recorded Plasma concentration at 48 h of `O=C1COc2ccc(CNC(=O)c3nc4scc(-c5ccc(C(F)(F)F)cc5)c4c(=O)[nH]3)cc2N1` , please.
0.042

----------
# measurement_target: Collagenase 3 (Homo sapiens)
# test_protocol: Inhibition of human recombinant MMP-13 catalytic domain (104 to 274 residues) expressed in Escherichia coli using fluorogenic Mca-KPLGL-Dpa-AR-NH2 as substrate by fluorescence spectrophotometric analysis
value_kind: Ki (nM)
Response body: numeric value in nM, unit text excluded.

| compound_structure_string | readout_value |
| --- | --- |
| O=C1COc2ccc(CNC(=O)c3nc4sc(C5CCCCC5)cc4c(=O)[nH]3)cc2N1 | 24.5 |

Recorded Ki of `O=C1COc2ccc(CNC(=O)c3nc4scc(-c5ccc(C(F)(F)F)cc5)c4c(=O)[nH]3)cc2N1` , please.
36

Recorded Ki of `O=C1COc2ccc(CNC(=O)c3nc4scc(CCc5ccccc5)c4c(=O)[nH]3)cc2N1` , please.
190

Recorded Ki of `O=C1COc2ccc(CNC(=O)c3nc4scc(C5CCCCC5)c4c(=O)[nH]3)cc2N1` , please.
0.47

Recorded Ki of `O=C1COc2ccc(CNC(=O)c3nc4sc5c(c4c(=O)[nH]3)CCCCCC5)cc2N1` , please.
0.59

----------
# test_protocol: AUC (0 to infinity) in CD-1 mouse at 10 mg/kg, po by UPLC analysis
# Format: ADME, organism-based
# Design: dose 10 mg/kg, time infinity, route oral
# condition_label: in vivo
value_kind: AUC(0-inf) (µM·h)
Response body: numeric value in µM·h, unit text excluded.

Recorded AUC(0-inf) of `O=C1COc2ccc(CNC(=O)c3nc4scc(-c5ccc(C(F)(F)F)cc5)c4c(=O)[nH]3)cc2N1` , please.
6.92

----------
# measurement_target: Stromelysin-1 (Homo sapiens) (UniProt P08254)
# Sequence (P08254 100-477 limits assumed): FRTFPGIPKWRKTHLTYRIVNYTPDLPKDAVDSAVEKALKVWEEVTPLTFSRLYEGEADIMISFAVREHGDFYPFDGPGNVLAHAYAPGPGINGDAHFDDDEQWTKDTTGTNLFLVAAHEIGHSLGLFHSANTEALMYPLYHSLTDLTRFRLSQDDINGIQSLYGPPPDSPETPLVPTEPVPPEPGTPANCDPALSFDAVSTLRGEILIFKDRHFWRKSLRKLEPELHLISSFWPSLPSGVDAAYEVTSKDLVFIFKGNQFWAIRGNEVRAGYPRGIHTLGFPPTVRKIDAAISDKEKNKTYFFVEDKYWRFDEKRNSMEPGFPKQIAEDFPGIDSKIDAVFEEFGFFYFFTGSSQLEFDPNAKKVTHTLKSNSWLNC
# test_protocol: Inhibition of human recombinant MMP-3 catalytic domain expressed in Escherichia coli using fluorogenic MOCAc-Arg-Pro-Lys-Pro-Val-Glu-Nva-Trp-Arg-Lys(Dnp)-NH2 as substrate at 10 uM by fluorescence spectrophotometric analysis
Calls of active or inactive are those of the source. No cut-off for these calls is given here.
value_kind: inhibition

Study these solved cases before continuing.
| compound_structure_string | measurement_target | readout_value |
| --- | --- | --- |
| O=C1COc2ccc(CNC(=O)c3nc4scc(C5CCCCC5)c4c(=O)[nH]3)cc2N1 | Stromelysin-1 (Homo sapiens) (UniProt P08254) | inactive |
| O=C1COc2ccc(CNC(=O)c3nc4sc5c(c4c(=O)[nH]3)CCCCCC5)cc2N1 | Stromelysin-1 (Homo sapiens) (UniProt P08254) | inactive |
| O=C1COc2ccc(CNC(=O)c3nc4scc(CCc5ccccc5)c4c(=O)[nH]3)cc2N1 | Stromelysin-1 (Homo sapiens) (UniProt P08254) | inactive |
| O=C1COc2ccc(CNC(=O)c3nc4scc(-c5ccc(C(F)(F)F)cc5)c4c(=O)[nH]3)cc2N1 | Stromelysin-1 (Homo sapiens) (UniProt P08254) | inactive |

Then this compound:
Recorded inhibition of `O=C1COc2ccc(CNC(=O)c3nc4sc(C5CCCCC5)cc4c(=O)[nH]3)cc2N1` , please.
inactive

----------
# measurement_target: Collagenase 3 (Homo sapiens)
# test_protocol: Inhibition of human recombinant MMP-13 catalytic domain (104 to 274 residues) expressed in Escherichia coli using fluorogenic Mca-KPLGL-Dpa-AR-NH2 as substrate at 10 uM by fluorescence spectrophotometric analysis relative to control
value_kind: inhibition

| compound_structure_string | measurement_target | value_kind | readout_value |
| --- | --- | --- | --- |
| O=C1COc2ccc(CNC(=O)c3nc4scc(-c5ccc(C(F)(F)F)cc5)c4c(=O)[nH]3)cc2N1 | Collagenase 3 (Homo sapiens) | inhibition | > 50% |

Form field: inhibition recorded for `O=C1COc2ccc(CNC(=O)c3nc4scc(C5CCCCC5)c4c(=O)[nH]3)cc2N1` with Collagenase 3 (Homo sapiens) (enter value)
> 50%

----------
# measurement_target: Collagenase 3 (Homo sapiens, UniProt P45452)
# test_protocol: Inhibition of human recombinant MMP-13 catalytic domain (104 to 274 residues) expressed in Escherichia coli using fluorogenic Mca-KPLGL-Dpa-AR-NH2 as substrate at 10 uM by fluorescence spectrophotometric analysis relative to control
Calls of active or inactive are those of the source. The calls are words filed in the database; no cut-off is given here.
value_kind: inhibition

Study these solved cases before continuing.
| compound_structure_string | readout_value |
| --- | --- |
| O=C1COc2ccc(CNC(=O)c3cc(-c4cccc5ccccc45)n[nH]3)cc2N1 | Active |
| O=C1COc2ccc(CNC(=O)c3nc4sc(C5CCCCC5)cc4c(=O)[nH]3)cc2N1 | > 50% |
| O=C1COc2ccc(CNC(=O)c3nc4sc5c(c4c(=O)[nH]3)CCCCCC5)cc2N1 | > 50% |
| O=C1COc2ccc(CNC(=O)c3cc(-c4ccccc4)n[nH]3)cc2N1 | Active |

Recorded inhibition of `O=C1COc2ccc(CNC(=O)c3nc4scc(CCc5ccccc5)c4c(=O)[nH]3)cc2N1` , please.
> 50%

----------
# test_protocol: Oral bioavailability in CD-1 mouse at 10 mg/kg by UPLC analysis
# Format: ADME, organism-based
# condition_label: in vivo
value_kind: bioavailability (%)
Response body: numeric value in %, unit text excluded.

Recorded bioavailability of `O=C1COc2ccc(CNC(=O)c3nc4scc(-c5ccc(C(F)(F)F)cc5)c4c(=O)[nH]3)cc2N1` , please.
4.7

----------
# test_protocol: Clearance in CD-1 mouse at 1 mg/kg, iv administered as single dose by UPLC analysis
# Type: ADME, organism-based
# condition_label: in vivo
value_kind: clearance (mL/min/kg)
Response body: numeric value in mL/min/kg, unit text excluded.

Recorded clearance of `O=C1COc2ccc(CNC(=O)c3nc4scc(-c5ccc(C(F)(F)F)cc5)c4c(=O)[nH]3)cc2N1` , please.
2.2

----------
# test_protocol: Plasma concentration in CD-1 mouse at 1 mg/kg, iv administered as single dose after 24 hrs by UPLC analysis
# Type: ADME, organism-based
value_kind: concentration at 24 h (nM)
Response body: numeric value in nM, unit text excluded.

Recorded concentration at 24 h of `O=C1COc2ccc(CNC(=O)c3nc4scc(-c5ccc(C(F)(F)F)cc5)c4c(=O)[nH]3)cc2N1` , please.
62

----------
# test_protocol: Cmax in CD-1 mouse at 10 mg/kg, po after 6 hrs by UPLC analysis
# Format: ADME, organism-based
# Parameters: dose 10 mg/kg, route oral
# condition_label: in vivo
value_kind: Cmax (nM)
Response body: numeric value in nM, unit text excluded.

Recorded Cmax of `O=C1COc2ccc(CNC(=O)c3nc4scc(-c5ccc(C(F)(F)F)cc5)c4c(=O)[nH]3)cc2N1` , please.
400

----------
# test_protocol: Plasma concentration in CD-1 mouse at 1 mg/kg, iv administered as single dose after 2 mins by UPLC analysis
# Assay type: ADME, organism-based
value_kind: concentration at 2 min (µM)
Response body: numeric value in µM, unit text excluded.

Recorded concentration at 2 min of `O=C1COc2ccc(CNC(=O)c3nc4scc(-c5ccc(C(F)(F)F)cc5)c4c(=O)[nH]3)cc2N1` , please.
4.4

----------
# measurement_target: Matrix metalloproteinase-14 (Homo sapiens)
# test_protocol: Inhibition of human recombinant MMP-14 catalytic domain ([…]) using fluorogenic MOCAc-Pro-Leu-Gly-Leu-A2pr(Dnp)-Ala-Arg-NH2 as substrate at 10 uM by fluorescence spectrophotometric analysis relative to control
Consider the following compounds and their measured inhibition readings.
Response body: numeric value in %, unit text excluded.

Study these solved cases before continuing.
| compound_structure_string | inhibition, % |
| --- | --- |
| O=C1COc2ccc(CNC(=O)c3nc4scc(CCc5ccccc5)c4c(=O)[nH]3)cc2N1 | 4 |
| O=C1COc2ccc(CNC(=O)c3nc4scc(-c5ccc(C(F)(F)F)cc5)c4c(=O)[nH]3)cc2N1 | 1 |

Recorded inhibition of `O=C1COc2ccc(CNC(=O)c3nc4sc5c(c4c(=O)[nH]3)CCCCCC5)cc2N1` , please.
14

Recorded inhibition of `O=C1COc2ccc(CNC(=O)c3nc4scc(C5CCCCC5)c4c(=O)[nH]3)cc2N1` , please.
14
